The reported measurements were obtained from the supplement of paper PMC9170038.

Tested on: MS2 coat protein
Assay: apparent KD of MS2 coat protein; designed switch direction (-1 OFF switch, 1 ON switch): -1; higher = weaker reporter binding
Conditions: input ligand: microRNA oligo, concentration not stated

{"sequence": "ACGCGAGUAGGAGGAUAUUCCGAGCGCGGGCCGGGAGAAGGCCUAGAUCGUGAACAUGAGGAUCACCCAUGUGGGAUGAUCUAA [Ededaranri] (Eterna round: R96, puzzle: Exclusion NG 1)", "reading-unit": "nM", "apparent KD of MS2 coat protein": 94.9}
{"sequence": "CCUGCGGACAAAGGAUAUUGCGGUGACCGGCUCGGCGUACCGAGCCUACAUGAGGAUCACCCAUGUAAGAAGGUUGUCGCUGGU [JL ViennaUCT Qudice mod 2] (Eterna round: R96, puzzle: Exclusion NG 2)", "reading-unit": "nM", "apparent KD of MS2 coat protein": 19.1}
{"sequence": "UUGUUAUGUGUAGGAUAUGCGUGUUAUUAUUAUGCAGAAGGACAUGAGGAUCACCCAUGUGUAUUGUUAUUAUAUAUUAUAUAU [Title] (Eterna round: R96, puzzle: Exclusion NG 1)", "reading-unit": "nM", "apparent KD of MS2 coat protein": 13.2}
